So I've got a bunch of molecules here, and I need their IC50 values.
# TESTED_SYSTEM: SIK2 (h) (Homo sapiens (Human), UniProt Q9H0K1)
# EXPERIMENT: SIK2 kinase activity, Eurofins KinaseProfiler ([γ-33P]-ATP filter assay)
# Format: biochemical
# EXPERIMENTAL_CONTEXT: Table 5, macrocycle precursors; read-out: IC50 nM SIK2
Answer format: number, then unit.

Lookup: If you can, please state the reported IC50 value of Cc1cccc(C)c1N1Cc2cnc(Nc3ccc(N4CCN(C)CC4)c(CO)c3)nc2N(CCCCC(=O)O)C1=O .
Found: 5 nM

Lookup: Quick one: IC50 for Cc1cccc(C)c1N1Cc2cnc(Nc3ccc(N4CCN(C)CC4)c(CO)c3)nc2N(CCCC(=O)O)C1=O ?
Found: 6 nM

Lookup: Fill in the blank: the reported IC50 of Cc1cccc(C)c1N1Cc2cnc(Nc3ccc(N4CCN(C)CC4)c(CO)c3)nc2N(CCC(=O)O)C1=O is ____.
Found: 10 nM
